Numbers sourced from patent US20220048893A1.

# ASSAY_TEXT: In vivo PK study, oral, plasma and brain
# Set-up: species or system Sprague Dawley rats; concentration or dose not given beside the values
# CONDITION: rat; Brain; oral, Sprague Dawley rats
# Experimental: In the PK profiling study, Compounds 1 and 2 were administered orally to three Sprague Dawley rats. The animals were fasted overnight before drug administration. The food supply were resumed 4 hrs post dose. […] Drug concentrations in blood and brain were analyzed by LC-MS/MS. […] The ratio of brain to plasma concentration were calculated by the concentration in brain tissue versus the concentration in plasma.
// reported AUC(0-inf) for each item listed
MEASURED_METRIC: AUC(0-inf) (ng·h/mL)

>>> print(df.to_string())
                                   compound  unit_string  observed_result
0  Cc1ccc(C(=O)Nc2ccc(C3CCN(C)CC3)cc2)cc1Nc1ccnc(-c2cccnc2)n1      ng·h/mL            25600
1  Cc1ccc(C(=O)Nc2ccc(CC(C)N(C)C)cc2)cc1Nc1ccnc(-c2cccnc2)n1 (centres unmarked)      ng·h/mL             8740

* * *

# Cmax values compiled below
# ASSAY_TEXT: In vivo PK study, oral, plasma and brain
# Parameters: species or system Sprague Dawley rats
# CONDITION: rat; Brain; oral, Sprague Dawley rats
MEASURED_METRIC: Cmax (ng/mL)

>>> df
                                   molecule  observed_result
0  Cc1ccc(C(=O)Nc2ccc(CC(C)N(C)C)cc2)cc1Nc1ccnc(-c2cccnc2)n1 (centres unmarked)              557
1  Cc1ccc(C(=O)Nc2ccc(C3CCN(C)CC3)cc2)cc1Nc1ccnc(-c2cccnc2)n1              796
